Numbers sourced from patent US6620828B2.

Biological target: CDK4/Cyclin D3 complex (Homo sapiens, UniProt P11802)
Construct: made in house; host or cells: insect cells co-infected with baculovirus vectors
Sequence (P11802 whole entry): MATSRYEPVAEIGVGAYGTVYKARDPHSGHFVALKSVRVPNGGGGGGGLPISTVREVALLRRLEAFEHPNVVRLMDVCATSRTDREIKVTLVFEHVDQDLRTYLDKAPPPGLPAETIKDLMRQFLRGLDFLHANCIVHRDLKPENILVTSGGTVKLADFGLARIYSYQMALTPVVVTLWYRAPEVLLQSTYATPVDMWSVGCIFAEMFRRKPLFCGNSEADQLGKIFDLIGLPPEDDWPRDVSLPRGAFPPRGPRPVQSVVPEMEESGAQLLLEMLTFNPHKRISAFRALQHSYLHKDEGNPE
Sequence (P30281 whole entry partner): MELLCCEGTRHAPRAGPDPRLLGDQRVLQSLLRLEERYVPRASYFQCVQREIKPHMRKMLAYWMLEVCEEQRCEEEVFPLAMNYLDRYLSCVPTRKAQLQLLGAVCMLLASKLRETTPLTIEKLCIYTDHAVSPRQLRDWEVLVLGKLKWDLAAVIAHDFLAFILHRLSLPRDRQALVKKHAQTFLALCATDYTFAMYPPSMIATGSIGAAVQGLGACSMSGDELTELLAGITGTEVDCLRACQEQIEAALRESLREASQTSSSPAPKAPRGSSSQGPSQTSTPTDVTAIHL
Experiment: CDK4/Cyclin D assay
Type: biochemical
Conditions: 1.0 μM; combinatorial library compounds
propertyLabel: inhibition at 1 µM (%)

Use the examples below as a reference point.
Nc1nc(Nc2ccc(S(N)(=O)=O)cc2)sc1-c1nc(-c2ccc(O)c(O)c2)cs1: 57.2
Nc1nc(Nc2ccc(S(N)(=O)=O)cc2)sc1-c1nc(-c2ccc(CC(=O)O)s2)cs1: 65
Cc1cc(-c2csc(-c3sc(Nc4ccc(C(C)C)cc4)nc3N)n2)c(C)s1: 76.5
CN(C)c1ccc(Nc2nc(N)c(-c3nc(-c4ccc(OC(=O)c5ccccc5)cc4)cs3)s2)cc1: 49.4
COc1ccc(OC)c(-c2csc(-c3sc(Nc4ccc(N(C)C)cc4)nc3N)n2)c1: 68.7

[I] CC(C)c1ccc(Nc2nc(N)c(-c3nc(-c4ccc5c(c4)CCC(=O)N5)cs3)s2)cc1
[II] CN(C)c1ccc(Nc2nc(N)c(-c3nc(-c4cc5cc(Cl)ccc5o4)cs3)s2)cc1
Please let me know which one, I or II , has a lower measured inhibition at 1 µM value. Answer format: the label of the selected item.
II

[P] CC(C)c1ccc(Nc2nc(N)c(-c3nc(-c4ccc5c(c4)C(C)(C)CCC5(C)C)cs3)s2)cc1
[Q] CC(C)c1ccc(Nc2nc(N)c(-c3nc(-c4ccc(OC(=O)c5ccccc5)cc4)cs3)s2)cc1
// compare measured inhibition at 1 µM, left P , right Q , return larger # reply format: chosen label
P

[a] CN(C)c1ccc(Nc2nc(N)c(-c3nc(-c4ccc(F)cc4)cs3)s2)cc1
[b] CC(C)c1ccc(Nc2nc(N)c(-c3nc(-c4ccc(Cl)cc4Cl)cs3)s2)cc1
Lab log: flag the item ( a or b ) with the smaller inhibition at 1 µM figure. Mark your answer with the label of the selected entry.
a
